- System: UO-31 renal
- Experimental details: NCI tumour cell line growth inhibition, 48 h
Assay endpoint: TGI

Take a look at these entries with their results.
[[record]]
molecule = "CCN(CC)c1ccc(C2NC(=O)c3ccccc3N2)cc1 (stereo not given)"
assay_endpoint = "TGI"
reported_measurement = "> 100 µM"

[[record]]
molecule = "CCN(CC)CCN1C(=O)C2C3C(=O)CC(C)(CC3C)C2C1=O (stereo not given)"
assay_endpoint = "TGI"
reported_measurement = "> 100 µM"

[[record]]
molecule = "COC1=C(OC)C(=O)C(Sc2ccc3ccccc3c2)=CC1=O"
assay_endpoint = "TGI"
reported_measurement = "16.3 µM"

[[record]]
molecule = "CC(c1ccccc1)[C@@H](C(=O)Nc1ccc(I)cc1F)N1C(=O)N[C@H](c2ccc(OC[C@H](O)CO)cc2)C1=O (stereo not given in full)"
assay_endpoint = "TGI"
reported_measurement = "> 25 µM"

[[record]]
molecule = "O=c1ccc(=O)n(-c2ccccc2)[nH]1"
assay_endpoint = "TGI"
reported_measurement = "> 100 µM"


Ask: Which TGI value belongs to COc1cccc(/C=C/c2ccnc3ccccc23)c1OC ?
Reply: > 10 µM

Ask: Which TGI value belongs to O=C(/C=C1\N=C(c2ccccc2)N(c2nc3c(Cl)cc(Cl)cc3s2)C1=O)/C=C/c1ccccc1 ?
Reply: > 100 µM

Ask: Which TGI value belongs to O=C(c1ccccc1)c1ccc2c(c1)nc1n2C(c2c(F)cccc2F)SC1 (stereo not given) ?
Reply: 54.8 µM

Ask: Which TGI value belongs to O/C(=C\c1nc2ccccc2nc1/C=C(\O)c1ccc(F)cc1)c1ccc(F)cc1 ?
Reply: > 100 µM

Ask: Which TGI value belongs to COc1ccc(Cl)cc1Nc1nc(C(F)(F)F)ccc1C(=O)N/N=C/c1cccnc1 ?
Reply: > 100 µM

----------
- Test system: MOLT-4 leukemia
- Experimental details: NCI tumour cell line growth inhibition, 48 h
Assay endpoint: TGI

Ask: Which TGI value belongs to NS(=O)(=O)c1nnc(NC(=O)c2cccc([N+](=O)[O-])c2)s1 ?
Reply: > 100 µM

Ask: Which TGI value belongs to O=C(N/N=C(/c1nc2ccc([N+](=O)[O-])cc2[nH]c1=O)C(O)c1ccc([N+](=O)[O-])cc1)c1ccncc1 (centres undefined) ?
Reply: > 100 µM

Ask: Which TGI value belongs to NC(=O)c1nnsc1NN=O ?
Reply: > 100 µM

Ask: Which TGI value belongs to CC(c1ccccc1)[C@@H](C(=O)Nc1ccc(I)cc1F)N1C(=O)N[C@H](c2ccc(OC[C@H](O)CO)cc2)C1=O (some centres undefined) ?
Reply: > 25 µM

----------
- Test system: RXF 393 renal
- Experimental details: NCI tumour cell line growth inhibition, 48 h
Items are presented alongside their recorded TGI.

Take a look at these entries with their results.
[[record]]
compound = "COC1CC(C)([N+](=O)[O-])C(O)C(C)O1 (stereo unspecified)"
reported_measurement = "> 100 µM"

[[record]]
compound = "CC(=O)OC(C)(C)/C=C/C(=O)[C@](C)(O)[C@H]1[C@H](O)C[C@@]2(C)[C@@H]3CC=C4[C@@H](C=C(O)C(=O)C4(C)C)[C@]3(C)C(=O)C[C@]12C"
reported_measurement = "46.1 nM [middle of 4 runs]"

[[record]]
compound = "CC[C@]1(O)CC2CN(CCc3c([nH]c4ccccc34)[C@@](C(=O)OC)(c3cc4c(cc3OC)N(C=O)[C@H]3[C@@](O)(C(=O)OC)[C@H](OC(C)=O)[C@]5(CC)C=CCN6CC[C@]43[C@@H]65)C2)C1 (stereo partly specified)"
reported_measurement = "> 50 µM"


Ask: Which TGI value belongs to CCOC(=O)c1sc2c(c1O)c(=O)n(-c1ccccc1)c(=S)n2-c1ccccc1 ?
Reply: > 100 µM

Ask: Which TGI value belongs to Cc1cc(C)c2c(c1)CC1(Cc3ccc(C)c(C)c3C1=O)C2=O (stereo unspecified) ?
Reply: > 100 µM

Ask: Which TGI value belongs to Cc1ccc(-c2nc3cc(Cl)c(Cl)cc3nc2C#N)cc1 ?
Reply: > 100 µM

Ask: Which TGI value belongs to Cc1cc(S(=O)(=O)Nc2n[nH]c(Nc3ccc4ccccc4c3)n2)c(S)cc1Cl ?
Reply: > 100 µM

Ask: Which TGI value belongs to CCOCC(=O)N(C)c1cccc2c3c(n(C)c12)CCCCC3 ?
Reply: > 100 µM

Ask: Which TGI value belongs to NC(Cc1c[nH]c2ccc(F)cc12)C(=O)O (stereo unspecified) ?
Reply: > 2500 µM

----------
- Tested on: UACC-257 melanoma
- Experimental details: NCI tumour cell line growth inhibition, 48 h
Assay endpoint: TGI

[[record]]
molecule = "NC(=O)c1nnsc1NN=O"
reported_measurement = "> 100 µM"

[[record]]
molecule = "COc1cc(COC(=O)N2CC=CC2C(=O)O)c([N+](=O)[O-])cc1OC (stereo unspecified)"
reported_measurement = "> 100 µM"

[[record]]
molecule = "CCN(CC)c1ccc(C2Nc3ccc4ccccc4c3C3=C2C(=O)CCC3)cc1 (stereo unspecified)"
reported_measurement = "> 100 µM"


Ask: Lookup: TGI / UACC-257 melanoma / COc1cc(C2SCC(=O)N2c2ccc(NC(C)=O)cc2)cc(OC)c1OC (stereo unspecified)
Reply: > 100 µM

Ask: Lookup: TGI / UACC-257 melanoma / O=C(Cc1csc2nc(-c3ccc(Cl)cc3)cn12)N/N=C/c1ccccc1O
Reply: > 100 µM

Ask: Lookup: TGI / UACC-257 melanoma / Cc1c(-c2ccc(O)cc2)oc(=O)c2ccc(O)cc12
Reply: > 100 µM

----------
- System: SK-MEL-5 melanoma
- Experimental details: NCI tumour cell line growth inhibition, 48 h
Assay endpoint: TGI (µM)
Provide only the numeric value, understood in µM.

[[record]]
compound = "CC[C@]1(O)CC2CN(CCc3c([nH]c4ccccc34)[C@@](C(=O)OC)(c3cc4c(cc3OC)N(C=O)[C@H]3[C@@](O)(C(=O)OC)[C@H](OC(C)=O)[C@]5(CC)C=CCN6CC[C@]43[C@@H]65)C2)C1 (stereo not given in full)"
assay_endpoint = "TGI"
reported_measurement = 0.059


Ask: Which TGI value belongs to COc1cc(/C=C/C(=O)N2CCC=CC2=O)cc(OC)c1OC ?
Reply: 12

----------
Items are presented alongside their recorded TGI.
- Tested on: MALME-3M melanoma
- Experimental details: NCI tumour cell line growth inhibition, 48 h

Take a look at these entries with their results.
[[record]]
compound = "CC(C)CC1c2[nH]c3ccccc3c2C[C@H]2C(=O)NC(CCCCNC(=O)OC(C)(C)C)C(=O)N12 (stereo partly specified)"
assay_endpoint = "TGI"
reported_measurement = "78.5 µM"

[[record]]
compound = "CC1=CC(O)C(C(O)(C(F)(F)F)C(F)(F)F)C(C)(C)C1 (stereo unspecified)"
assay_endpoint = "TGI"
reported_measurement = "> 10 µM"


Moving on to another compound below.
Ask: Which TGI value belongs to O=Cc1c(-c2ccccc2)[nH]c2ccccc2c1=O ?
Reply: > 100 µM

----------
- Test system: SK-MEL-2 melanoma
- Experimental details: NCI tumour cell line growth inhibition, 48 h
Items are presented alongside their recorded TGI.

Take a look at these entries with their results.
[[record]]
sample_smiles = "CCCCCCCCCCCCCCCCc1c(C(=O)OC)nc(NN)[nH]c1=O"
reported_measurement = "> 50 µM"

[[record]]
sample_smiles = "O=C(Nc1cccc(-n2cc(-c3ccncc3)c(-c3ccc(O)c(Cl)c3)n2)c1)c1cc(C(F)(F)F)cc(C(F)(F)F)c1"
reported_measurement = "34 µM"


Moving on to another molecule below.
Ask: Which TGI value belongs to Cc1ccc(-c2nc3cc(Cl)c(Cl)cc3nc2C#N)cc1 ?
Reply: > 100 µM

----------
- Test system: HOP-62 NSCLC
- Experimental details: NCI tumour cell line growth inhibition, 48 h
Assay endpoint: TGI

Take a look at these entries with their results.
[[record]]
compound = "C#CCNC(=O)NCCCCC(NC(C)=O)C(=O)NCc1ccccc1 (centres undefined)"
experimental_target = "HOP-62 NSCLC"
assay_endpoint = "TGI"
reported_measurement = "> 100 µM"

[[record]]
compound = "CCOC(=O)CCC(NC(=O)c1ccc(N=Cc2nc3ccccc3nc2-c2ccccc2)cc1)C(=O)OCC (centres undefined)"
experimental_target = "HOP-62 NSCLC"
assay_endpoint = "TGI"
reported_measurement = "> 100 µM"


Ask: Which TGI value belongs to COc1cc(/C=C/C(=O)/C=C/c2cc3ccc(Cl)cc3n(Cc3ccccc3)c2=O)ccc1O ?
Reply: 7.08 µM

Ask: Which TGI value belongs to CC(=O)Oc1c(OC(C)C)c(C)c(O[Si](C(C)C)(C(C)C)C(C)C)c2[nH]c3ccccc3c12 ?
Reply: > 100 µM

Ask: Which TGI value belongs to CCCCCCNC(=S)N/N=C(\C)c1ccccn1 ?
Reply: 14.9 µM

Ask: Which TGI value belongs to CCCCC(/C=C\COC1CCCCO1)=C/C(=O)OCC (centres undefined) ?
Reply: > 100 µM

Ask: Which TGI value belongs to CC(=O)OCC1OC(n2c(N)c(C#N)c(C)c(C#N)c2=S)C(OC(C)=O)C(OC(C)=O)C1OC(C)=O (centres undefined) ?
Reply: > 100 µM

Ask: Which TGI value belongs to CCCCCCSCC/C(C)=N\OC ?
Reply: > 100 µM

Ask: Which TGI value belongs to Clc1ccc(CCc2ccncn2)c(Cl)c1 ?
Reply: > 100 µM
